Attribution: ChEMBL document CHEMBL5500343

System: Plasmodium falciparum
Assay: Binding affinity to recombinant Plasmodium falciparum START1 assessed as change in entropy at 10 uM by isothermal titration calorimetry
readout: -TdeltaS (kcal/mol)
Supply the numeric figure in kcal/mol, leaving out any unit text.

- smiles.entry: "C[C@H](Nc1ccc(Cl)c(S(=O)(=O)N2CCOCC2)c1)C(=O)Nc1cncc(Cl)c1"
  -TdeltaS / kcal/mol: 4.8
- smiles.entry: "C[C@@H](Nc1ccc(Cl)c(S(=O)(=O)N2CCOCC2)c1)C(=O)Nc1ccc(F)c(Cl)c1"
  -TdeltaS / kcal/mol: 6.7
- smiles.entry: "CC(C)(Nc1ccc(Cl)c(S(=O)(=O)N2CCOCC2)c1)C(=O)Nc1cncc(Cl)c1"
  -TdeltaS / kcal/mol: 0.8

Consider now this further compound.
In: Bench note: what -TdeltaS did C[C@H](Nc1ccc(Cl)c(S(=O)(=O)N2CCOCC2)c1)C(=O)Nc1ccc(F)c(Cl)c1 show?
Out: 7.8
